Property: kinase still bound, per cent of control; scope: individual molecules
test system: EGFR (human), P00533 [A750P; 747-749 del]; test: KINOMEscan competition binding; details: compound 10.0 µM
measured-attribute: kinase still bound, per cent of control (%)

>  <molecule>
COc1cc(N2CCC(N3CCN(C)CC3)CC2)ccc1Nc1ncc2c(n1)N(C1CCCC1)C(C)CC(=O)N2 (centres undefined)

>  <measured-attribute>
kinase still bound, per cent of control

>  <test-result>
33

$$$$
>  <molecule>
COc1cc(N2CCN(C)CC2)ccc1Nc1ncc2c(n1)N(C1CCCC1)C(C)CC(=O)N2 (centres undefined)

>  <measured-attribute>
kinase still bound, per cent of control

>  <test-result>
33

$$$$
>  <molecule>
COc1cc(N2CCC(C)(O)CC2)ccc1Nc1ncc2c(n1)N(C1CCCC1)CCC(=O)N2C

>  <measured-attribute>
kinase still bound, per cent of control

>  <test-result>
4

$$$$
>  <molecule>
COc1cc(N2CCC(O)CC2)ccc1Nc1ncc2c(n1)N(C1CCCC1)CCC(=O)N2C

>  <measured-attribute>
kinase still bound, per cent of control

>  <test-result>
22

$$$$
>  <molecule>
CS(=O)(=O)Nc1ccc(-c2cncc(/C=C3\SC(=N)NC3=O)c2)cc1

>  <measured-attribute>
kinase still bound, per cent of control

>  <test-result>
17

$$$$
>  <molecule>
COc1cc(N2CCN(C)CC2)ccc1Nc1ncc2c(n1)Nc1ccccc1NC2=O

>  <measured-attribute>
kinase still bound, per cent of control

>  <test-result>
33

$$$$
>  <molecule>
CN1CCN(c2ccc(C(=O)Nc3ncc4c(n3)N(C)c3ccccc3C(=O)N4C)cc2)CC1

>  <measured-attribute>
kinase still bound, per cent of control

>  <test-result>
100

$$$$
>  <molecule>
COc1cc(N2CCC(O)CC2)ccc1Nc1ncc2c(n1)N(c1ccccc1)CCC(=O)N2C

>  <measured-attribute>
kinase still bound, per cent of control

>  <test-result>
21

$$$$
>  <molecule>
COc1cc(N2CCC(O)CC2)ccc1Nc1ncc2c(n1)N1CCc3cccc(c31)C(=O)N2C

>  <measured-attribute>
kinase still bound, per cent of control

>  <test-result>
84

$$$$

---

target: MUSK (human); assay: KINOMEscan competition binding; conditions: compound 10.0 µM
Property: kinase still bound, per cent of control; scope: individual molecules
measured-attribute: kinase still bound, per cent of control

>  <structure-string>
CN1C(=O)c2ccccc2N(C)c2nc(NS(=O)(=O)c3ccc(N)cc3)ncc21

>  <test-result>
100%

$$$$
>  <structure-string>
COc1cc(N2CCN(C)CC2)ccc1Nc1ncc2c(n1)N(C)c1sccc1C(=O)N2C

>  <test-result>
100%

$$$$
>  <structure-string>
O=C1NC(=O)/C(=C/c2c[nH]c(=O)c(-c3ccc(N4CCNCC4)nc3)c2)S1

>  <test-result>
97%

$$$$
>  <structure-string>
COc1cc(N2CCC(O)CC2)ccc1Nc1ncc2c(n1)N1CCc3cccc(c31)C(=O)N2C

>  <test-result>
100%

$$$$
>  <structure-string>
COc1cc(N2CCN(C)CC2)ccc1Nc1ncc2c(n1)N(C)c1ccccc1N(C)C2=O

>  <test-result>
100%

$$$$

---

biological target: STK17A (human) (UniProt Q9UEE5); assay: KINOMEscan competition binding; settings: compound 10.0 µM
Sequence (Q9UEE5 whole entry, looked up): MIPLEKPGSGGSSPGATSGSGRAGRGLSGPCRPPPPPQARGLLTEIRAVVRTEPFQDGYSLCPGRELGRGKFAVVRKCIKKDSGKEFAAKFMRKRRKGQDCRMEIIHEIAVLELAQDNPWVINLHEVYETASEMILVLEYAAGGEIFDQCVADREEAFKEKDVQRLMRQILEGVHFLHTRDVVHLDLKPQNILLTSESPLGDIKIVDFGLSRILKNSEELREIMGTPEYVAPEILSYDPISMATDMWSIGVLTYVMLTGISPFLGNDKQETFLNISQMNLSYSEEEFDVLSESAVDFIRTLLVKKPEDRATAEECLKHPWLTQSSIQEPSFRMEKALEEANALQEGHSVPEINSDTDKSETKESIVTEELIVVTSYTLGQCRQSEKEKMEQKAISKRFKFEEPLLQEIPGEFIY

>  <structure-string>
N=C1NC(=O)/C(=C/c2ccc(-c3ccc(S(N)(=O)=O)cc3)o2)S1

>  <measured-target>
STK17A (human) (UniProt Q9UEE5)

>  <output-unit>
%

>  <kinase still bound, per cent of control>
1.1

$$$$
>  <structure-string>
Nc1cccc(-c2cc(/C=C3\SC(=O)NC3=O)c[nH]c2=O)c1

>  <measured-target>
STK17A (human) (UniProt Q9UEE5)

>  <output-unit>
%

>  <kinase still bound, per cent of control>
0.3

$$$$
>  <structure-string>
N=C1NC(=O)/C(=C/c2ccc(-c3ccccc3O)o2)S1

>  <measured-target>
STK17A (human) (UniProt Q9UEE5)

>  <output-unit>
%

>  <kinase still bound, per cent of control>
0.4

$$$$
>  <structure-string>
CN1C(=O)[C@H]2CCC[C@H]2N(C2CCCC2)c2nc(Nc3ccc4ncccc4c3)ncc21

>  <measured-target>
STK17A (human) (UniProt Q9UEE5)

>  <output-unit>
%

>  <kinase still bound, per cent of control>
3.3

$$$$
>  <structure-string>
CS(=O)(=O)Nc1ccc(-c2cncc(/C=C3\SC(=N)NC3=O)c2)cc1

>  <measured-target>
STK17A (human) (UniProt Q9UEE5)

>  <output-unit>
%

>  <kinase still bound, per cent of control>
0.45

$$$$

---

Property: pKd; scope: individual compounds
target: TTK (human) (UniProt P33981); experiment: KINOMEscan competition binding
Sequence (P33981 whole entry, looked up): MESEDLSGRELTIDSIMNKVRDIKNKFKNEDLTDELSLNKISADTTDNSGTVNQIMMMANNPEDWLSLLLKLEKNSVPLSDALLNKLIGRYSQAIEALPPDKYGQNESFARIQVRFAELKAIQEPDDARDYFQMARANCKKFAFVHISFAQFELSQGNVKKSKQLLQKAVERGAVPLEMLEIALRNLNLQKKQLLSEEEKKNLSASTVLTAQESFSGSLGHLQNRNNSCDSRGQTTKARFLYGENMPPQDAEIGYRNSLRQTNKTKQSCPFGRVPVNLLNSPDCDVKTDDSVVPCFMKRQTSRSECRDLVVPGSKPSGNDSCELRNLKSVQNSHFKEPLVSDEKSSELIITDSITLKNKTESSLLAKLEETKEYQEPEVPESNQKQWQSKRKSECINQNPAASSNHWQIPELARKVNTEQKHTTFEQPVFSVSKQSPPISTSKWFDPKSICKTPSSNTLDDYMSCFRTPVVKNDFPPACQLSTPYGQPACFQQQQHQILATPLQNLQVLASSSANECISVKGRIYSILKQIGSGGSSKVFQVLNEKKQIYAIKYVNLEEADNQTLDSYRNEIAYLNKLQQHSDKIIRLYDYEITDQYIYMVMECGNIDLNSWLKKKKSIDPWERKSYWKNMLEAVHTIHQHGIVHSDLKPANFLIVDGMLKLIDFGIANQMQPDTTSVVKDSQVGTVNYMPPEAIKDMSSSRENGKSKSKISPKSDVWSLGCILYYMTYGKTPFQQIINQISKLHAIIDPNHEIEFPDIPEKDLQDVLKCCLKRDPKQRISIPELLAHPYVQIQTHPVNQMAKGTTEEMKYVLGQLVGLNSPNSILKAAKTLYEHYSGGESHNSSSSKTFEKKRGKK
pKd: −log10 of the molar value.
measured-attribute: pKd

>  <compound>
CN1C(=O)CCN(C2CCCC2)c2nc(Nc3ccc(N4CCC(O)CC4)cn3)ncc21

>  <measured-target>
TTK (human) (UniProt P33981)

>  <measured-attribute>
pKd

>  <test-result>
6.89

$$$$
>  <compound>
CCOc1cc(N2CCC(O)CC2)ccc1Nc1ncc2c(n1)N(C1CCCC1)CCC(=O)N2

>  <measured-target>
TTK (human) (UniProt P33981)

>  <measured-attribute>
pKd

>  <test-result>
6.19

$$$$
>  <compound>
COc1cc(C(=O)NC2CCN(C)CC2)ccc1Nc1ncc2c(n1)N(C1CCCC1)CCC(=O)N2C

>  <measured-target>
TTK (human) (UniProt P33981)

>  <measured-attribute>
pKd

>  <test-result>
6.24

$$$$
>  <compound>
COc1cc(N(C)CCCO)ccc1Nc1ncc2c(n1)N(C1CCCC1)CCC(=O)N2C

>  <measured-target>
TTK (human) (UniProt P33981)

>  <measured-attribute>
pKd

>  <test-result>
7.23

$$$$
>  <compound>
CC[C@@H]1C(=O)N(C)c2cnc(Nc3ccc(N4CCCC(O)C4)cc3OC)nc2N1C1CCCC1 (some centres not stated)

>  <measured-target>
TTK (human) (UniProt P33981)

>  <measured-attribute>
pKd

>  <test-result>
5.58

$$$$
>  <compound>
COc1cc(N2CCC(O)CC2)ccc1Nc1ncc2c(n1)N(C1CCCC1)CCC(=O)N2C

>  <measured-target>
TTK (human) (UniProt P33981)

>  <measured-attribute>
pKd

>  <test-result>
7.55

$$$$
>  <compound>
CC(C)Oc1cc(N2CCC(O)CC2)ccc1Nc1ncc2c(n1)N(C1CCCC1)CCC(=O)N2C

>  <measured-target>
TTK (human) (UniProt P33981)

>  <measured-attribute>
pKd

>  <test-result>
6.95

$$$$

---

molecular target: PLK3 (human) (UniProt Q9H4B4); test: KINOMEscan competition binding; settings: compound 10.0 µM
Sequence (Q9H4B4 whole entry, looked up): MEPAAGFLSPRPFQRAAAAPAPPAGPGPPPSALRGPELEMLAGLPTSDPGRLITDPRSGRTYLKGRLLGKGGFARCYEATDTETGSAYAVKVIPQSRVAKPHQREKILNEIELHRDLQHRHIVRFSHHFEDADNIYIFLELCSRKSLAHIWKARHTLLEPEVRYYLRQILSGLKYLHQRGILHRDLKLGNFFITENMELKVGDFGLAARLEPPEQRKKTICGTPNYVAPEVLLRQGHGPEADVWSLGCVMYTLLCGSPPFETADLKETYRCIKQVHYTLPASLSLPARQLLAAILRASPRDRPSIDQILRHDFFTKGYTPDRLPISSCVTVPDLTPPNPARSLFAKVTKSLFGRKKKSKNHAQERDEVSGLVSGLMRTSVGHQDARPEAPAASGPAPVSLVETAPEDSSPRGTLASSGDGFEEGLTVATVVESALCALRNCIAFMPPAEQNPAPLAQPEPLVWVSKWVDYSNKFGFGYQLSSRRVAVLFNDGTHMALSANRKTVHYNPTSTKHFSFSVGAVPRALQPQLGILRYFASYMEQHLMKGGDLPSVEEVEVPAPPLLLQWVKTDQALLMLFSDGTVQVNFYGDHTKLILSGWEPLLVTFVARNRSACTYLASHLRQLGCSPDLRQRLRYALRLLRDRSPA

>  <compound>
COc1cc(C(N)=O)ccc1Nc1ncc2c(n1)N(C1CCCC1)[C@@H]1CCC[C@@H]1C(=O)N2C

>  <kinase still bound, per cent of control, %>
1.7

$$$$
>  <compound>
COc1cc(C(=O)NC2CCN(C)CC2)ccc1Nc1ncc2c(n1)N(C1CCC(O)CC1)CCC(=O)N2C (centres undefined)

>  <kinase still bound, per cent of control, %>
4.1

$$$$
>  <compound>
COc1cc(C(=O)NC2CCN(C)CC2)ccc1Nc1ncc2c(n1)N(CCc1ccccc1)CCC(=O)N2C

>  <kinase still bound, per cent of control, %>
6.5

$$$$
>  <compound>
COc1cc(N2CCN(C)CC2)ccc1Nc1ncc2c(n1)N(C1CCCC1)C(C)CC(=O)N2 (centres undefined)

>  <kinase still bound, per cent of control, %>
11

$$$$
>  <compound>
COc1cc(C(=O)NC2CCC(O)CC2)ccc1Nc1ncc2c(n1)N(C1CCCC1)[C@@H]1CCC[C@@H]1C(=O)N2C (some centres undefined)

>  <kinase still bound, per cent of control, %>
0.9

$$$$
>  <compound>
CCN(CC)C1CCN(c2ccc(Nc3ncc4c(n3)N3CCCC3C=CN4C)c(OC(C)C)c2)CC1 (centres undefined)

>  <kinase still bound, per cent of control, %>
5.8

$$$$
>  <compound>
O=C1NC(=O)/C(=C/c2c[nH]c(=O)c(-c3ccc(N4CCNCC4)nc3)c2)S1

>  <kinase still bound, per cent of control, %>
85

$$$$
>  <compound>
COc1cc(N2CCN(C)CC2)ccc1Nc1ncc2c(n1)N(C)c1ccccc1N(C)C2=O

>  <kinase still bound, per cent of control, %>
100

$$$$
>  <compound>
CC(C)Oc1cc(N2CCC(O)CC2)ccc1Nc1ncc2c(n1)N1CCC[C@H]1CC(=O)N2C

>  <kinase still bound, per cent of control, %>
16

$$$$

---

Property: kinase still bound, per cent of control; scope: individual compounds
molecular target: CLK2 (human); assay: KINOMEscan competition binding; conditions: compound 10.0 µM
measured-attribute: kinase still bound, per cent of control (%)

>  <compound>
N=C1NC(=O)/C(=C/c2ccc(-c3ccc(F)cc3O)o2)S1

>  <test-result>
2.8

$$$$
>  <compound>
N=C1NC(=O)/C(=C/c2ccc(-c3ccc(F)cc3)o2)S1

>  <test-result>
16

$$$$
>  <compound>
N=C1NC(=O)/C(=C/c2ccc(-c3ccc(C(N)=O)cc3O)o2)S1

>  <test-result>
19

$$$$
>  <compound>
O=C1NC(=O)/C(=C/c2c[nH]c(=O)c(-c3ccc(C(=O)Nc4ccc(N5CCNCC5)cc4)cc3)c2)S1

>  <test-result>
0.45

$$$$
>  <compound>
COc1cc(C(=O)NC2CCN(C)CC2)ccc1Nc1ncc2c(n1)N(C1CCCC1)CC(C)C(=O)N2C (stereo not given)

>  <test-result>
15

$$$$
